Entries and their melting point values follow.

>  <molecule>
CCOC(=O)c1cn(C2CC2)c2c(C)c(N3CCN(C(=O)OCC)CC3)c(F)cc2c1=O

>  <melting point>
200 to 202 °C

$$$$
>  <molecule>
O=C(NC1CCN(CCC(O)C(=O)C(O)CCN2CCC(NC(=O)c3ccccc3)CC2)CC1)c1ccccc1 (centres undefined)

>  <melting point>
154 to 155 °C

$$$$
>  <molecule>
CC(=NOc1ccc(Cl)cc1)c1ccc(C(F)(F)F)cc1NS(=O)(=O)C(F)(F)F

>  <melting point>
89 to 90 °C

$$$$
>  <molecule>
O=C(Oc1ccc(Oc2ccccc2)cc1)Oc1ccc([N+](=O)[O-])cc1

>  <melting point>
113 to 115 °C

$$$$

Query CC(C)C(OCc1ccccc1)[C@H]1[C@H]([N+](=O)[O-])[C@@H](c2ccco2)N[C@@H]1C(=O)NCCC(=O)O (some centres undefined) yields melting point of 70 to 72 °C

Query CCCCn1c(=O)n(CCC)c(=O)c2c(NC(C)=O)n[nH]c21 yields melting point of 156 to 158 °C

Query CC(=O)c1cc(F)ccc1Oc1nc2ccc(N=[N+]=[N-])cc2cc1Cc1ccccc1 yields melting point of 127 to 130 °C

Query CC(C)(C)OC(=O)[C@@H]1CCCN1CC(=O)[C@H](Cc1ccccc1)NC(=O)OCc1ccccc1 yields melting point of 98 to 99 °C

Query N#Cc1cc(F)c(-n2nc(C(F)(F)F)n(N)c2=O)cc1F yields melting point of 141 °C

Query CCOC(=O)c1cc2c3n(ccc-2n1)CC(c1ccccc1)=N3 yields melting point of 255 to 257 °C

Query CC(C)(CO)n1c(Cc2ccccc2)nc2c(Cl)nc3ccccc3c21 yields melting point of 262 to 266 °C

Query CS(=O)(=O)c1ccc(C(CC2CCCC2)C(=O)Nc2cnc(C(C#N)=NO)cn2)cc1Cl (centres undefined) yields melting point of 130 to 133 °C

Query CS(=O)(=O)c1ccc(-n2nc(C(N)=O)cc2-c2ccc(-c3ccco3)cc2)cc1F yields melting point of 239 to 240 °C

Query COC1(c2csc(Sc3ccc4c(c3)CCC(=O)N4C)c2)CCOCC1 yields melting point of 106 to 108 °C

Query CCCN(C(=O)OCC(Cl)(Cl)Cl)C1CN(C(=O)Nc2ccc(C(F)(F)F)cc2)N=C1c1ccc(Cl)cc1 (centres undefined) yields melting point of 172 to 173 °C

Query CSc1ncc2cc(-c3c(Cl)cccc3Cl)c(N)nc2n1 yields melting point of 250 to 253 °C

Query Cc1cc(S(=O)(=O)N(C)CC(O)(CCl)c2ccccc2)ccc1Cl (centres undefined) yields melting point of 105 to 107 °C

Query Cc1ccc(-c2nc(CCCCCCOC(C)(C)c3nnn[nH]3)c(C)o2)cc1 yields melting point of 87 °C

Query CCCOc1ccc(-c2cncn2-c2ccc(S(C)(=O)=O)cc2)cc1 yields melting point of 167 to 169 °C

Query CCC(C)(C)c1ccc(Oc2cccc(C#N)c2C#N)c(C(C)(C)CC)c1 yields melting point of 143 to 144 °C

Query CC(C)(C)c1cc2c(cc1O)C(C)(C)CC2(C)C yields melting point of 114 °C

Query CCCCCCCCCCc1nnn(CC(=O)Nc2c(C(C)C)cccc2C(C)C)n1 yields melting point of 108 to 110 °C

Query Cc1ccc(C(=O)NCc2ccccc2)cc1-c1nc(NCCCN(C)C)nc2c1CNC(=O)N2c1c(F)cccc1F yields melting point of 141 to 144 °C
